I'd appreciate it if you could supply Activity values for the items below.
Tested on: HCT-116
Assay: Induction of apoptosis in human HCT-116 cells assessed as early apoptotic cells at IC50 incubated for 72 hrs by Annexin V-FITC/PI staining based flow cytometric analysis (reference value: 7.8 %)
Type: functional

Previously resolved entries follow.
[
  {
    "compound": "COc1ccccc1N1CCN(CCCCN2C(=O)C3C(C2=O)C2(C)C(=O)C3(C)C(c3ccccc3)=C2c2ccccc2)CC1 (stereo unspecified)",
    "Activity": "18.4%"
  },
  {
    "compound": "CC12C(=O)C(C)(C(c3ccccc3)=C1c1ccccc1)C1C(=O)N(CCCCN3CCN(c4ccccn4)CC3)C(=O)C12 (stereo unspecified)",
    "Activity": "12.1%"
  },
  {
    "compound": "CC12C(=O)C(C)(C(c3ccccc3)=C1c1ccccc1)C1C(=O)N(CCCCN3CCN(c4cccc(Cl)c4)CC3)C(=O)C12 (stereo unspecified)",
    "Activity": "15.7%"
  },
  {
    "compound": "CC12C(=O)C(C)(C(c3ccccc3)=C1c1ccccc1)C1C(=O)N(CCCCN3CCN(c4ncccn4)CC3)C(=O)C12 (stereo unspecified)",
    "Activity": "58.2%"
  },
  {
    "compound": "CC12C(=O)C(C)(C(c3ccccc3)=C1c1ccccc1)C1C(=O)N(CCCCN3CCN(c4ccccc4F)CC3)C(=O)C12 (stereo unspecified)",
    "Activity": "23%"
  }
]

QUERY: Query for HCT-116: what Activity does the record show for CC12C(=O)C(C)(C(c3ccccc3)=C1c1ccccc1)C1C(=O)N(CCCCN3CCN(c4ccccc4Cl)CC3)C(=O)C12 (stereo unspecified) ?
RESULT: 36.4%
